Attribution: paper PMC11568214

System: MDA-MB-468
Test: Crystal violet (CV) cell viability assay, IC50 determination
Assay type: cell-based, human
Conditions: Homo sapiens, MDA-MB-468, 72 h treatment, mean ± SD
REPORTED_ENDPOINT: pIC50
Lab note: report pIC50 as minus log10 of the concentration in molar units, number only.

Q: Quick one: pIC50 of O=c1[nH]c(Nc2ccc(Cl)cc2)nc2ccccc12 ?
Result: 4.89

Q: Quick one: pIC50 of O=c1[nH]c(Nc2ccc(Cc3ccc([N+](=O)[O-])cc3[N+](=O)[O-])cc2)nc2ccccc12 ?
Result: 4.95

Q: Quick one: pIC50 of O=c1[nH]c(Nc2ccc([N+](=O)[O-])cc2)nc2ccccc12 ?
Result: 5.24

Q: Quick one: pIC50 of O=c1[nH]c(Nc2ccccc2)nc2ccc([N+](=O)[O-])cc12 ?
Result: 5.10

Q: Quick one: pIC50 of O=c1[nH]c(Nc2ccccc2)nc2cc([N+](=O)[O-])ccc12 ?
Result: 5.16
